target: Delta-type opioid receptor (Rattus norvegicus, UniProt P33533); assay: Displacement of [3H]Ile5,6-deltorphin from delta opioid receptor in Wistar rat brain membrane
Sequence (P33533 whole entry): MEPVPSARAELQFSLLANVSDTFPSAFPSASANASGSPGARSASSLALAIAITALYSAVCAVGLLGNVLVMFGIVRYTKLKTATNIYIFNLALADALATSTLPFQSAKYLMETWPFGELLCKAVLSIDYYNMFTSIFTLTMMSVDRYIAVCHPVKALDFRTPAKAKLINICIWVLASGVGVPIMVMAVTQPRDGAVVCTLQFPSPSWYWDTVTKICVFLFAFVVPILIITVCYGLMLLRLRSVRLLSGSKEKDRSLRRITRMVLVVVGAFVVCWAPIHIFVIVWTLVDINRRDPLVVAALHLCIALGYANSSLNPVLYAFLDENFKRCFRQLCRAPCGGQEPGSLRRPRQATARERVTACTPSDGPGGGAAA
measurement-name: Ki

>>> print(df.to_string())
                    structure_smiles_string                           target_of_assay  result
0  Cc1cc(O)cc(C)c1C[C@H](N)C(=O)N1Cc2ccccc2C[C@H]1C(=O)N[C@H](C(=O)N[C@@H](Cc1ccccc1)C(N)=O)[C@@H](C)C1CCCCC1  Delta-type opioid receptor (Rattus norvegicus, UniProt P33533)    4 nM
1  Cc1cc(O)cc(C)c1C[C@H](N)C(=O)N1Cc2ccccc2C[C@H]1C(=O)N[C@@H](C(=O)N[C@@H](Cc1ccccc1)C(N)=O)[C@@H](C)C1CCCCC1  Delta-type opioid receptor (Rattus norvegicus, UniProt P33533)    7 nM
2  Cc1cc(O)cc(C)c1C[C@H](N)C(=O)N1Cc2ccccc2C[C@H]1C(=O)N[C@@H](C(=O)N[C@@H](Cc1ccccc1)C(=O)O)[C@H](C)C1CCCCC1  Delta-type opioid receptor (Rattus norvegicus, UniProt P33533)    2 nM

----------
We begin with a simple list: items and their reported log10 of Ke.
target: Mu-type opioid receptor (Cavia porcellus); conditions: Ileum
Description: Antagonism at mu opioid receptor determined against TAPP in electrically induced guinea pig ileum
measurement-name: log10 of Ke (log10 of the value in nM)

compound	target-of-assay	log10 of Ke
Cc1cc(O)cc(C)c1C[C@H](N)C(=O)N1Cc2ccccc2CC1C(=O)N[C@@H](C(=O)N[C@@H](Cc1ccccc1)C(N)=O)[C@H](C)C1CCCCC1 (stereo partly specified)	Mu-type opioid receptor (Cavia porcellus)	2.83
Cc1cc(O)cc(C)c1C[C@H](N)C(=O)N1Cc2ccccc2CC1C(=O)N[C@@H](C(=O)N[C@@H](Cc1ccccc1)C(=O)O)[C@H](C)C1CCCCC1 (stereo partly specified)	Mu-type opioid receptor (Cavia porcellus)	2.46
Cc1cc(O)cc(C)c1C[C@H](N)C(=O)N1Cc2ccccc2CC1C(=O)N[C@H](C(=O)N[C@@H](Cc1ccccc1)C(N)=O)[C@@H](C)C1CCCCC1 (stereo partly specified)	Mu-type opioid receptor (Cavia porcellus)	2.53
Cc1cc(O)cc(C)c1C[C@H](N)C(=O)N1Cc2ccccc2CC1C(=O)N[C@H](C(=O)N[C@@H](Cc1ccccc1)C(=O)O)[C@@H](C)C1CCCCC1 (stereo partly specified)	Mu-type opioid receptor (Cavia porcellus)	2.99
Cc1cc(O)cc(C)c1C[C@H](N)C(=O)N1Cc2ccccc2CC1C(=O)N[C@@H](C(=O)N[C@@H](Cc1ccccc1)C(=O)O)[C@@H](C)C1CCCCC1 (stereo partly specified)	Mu-type opioid receptor (Cavia porcellus)	1.28
Cc1cc(O)cc(C)c1C[C@H](N)C(=O)N1Cc2ccccc2CC1C(=O)N[C@@H](C(=O)N[C@@H](Cc1ccccc1)C(N)=O)[C@@H](C)C1CCCCC1 (stereo partly specified)	Mu-type opioid receptor (Cavia porcellus)	2.08
